For each entry below, report its Bliss interaction score value.
system: S. aureus DSM 20231; assay: Bliss interaction score (quartile over a dose matrix) (fitness difference); higher = more antagonism (negative = synergy);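 further: first quartile when negative (synergy) and third quartile when positive (antagonism)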
Numbers only.

COc1cccc2c1C(=O)c1c(O)c3c(c(O)c1C2=O)C[C@@](O)(C(=O)CO)C[C@@H]3O[C@H]1C[C@H](N)[C@H](O)[C@H](C)O1 [Doxorubicin] + CN(C)C(=O)C(CCN1CCC(O)(c2ccc(Cl)cc2)CC1)(c1ccccc1)c1ccccc1 [Loperamide] | -0.0983

# return Bliss interaction score for each item in the list
1. C[C@H]1c2cccc(O)c2C(=O)C2=C(O)[C@]3(O)C(=O)C(C(N)=O)=C(O)[C@@H](N(C)C)[C@@H]3[C@@H](O)[C@@H]21 [Doxycycline] + COc1ccc(C[C@H](N)C(=O)N[C@H]2[C@@H](O)[C@H](n3cnc4c(N(C)C)ncnc43)O[C@@H]2CO)cc1 [Puromycin]
2. Cc1ncc([N+](=O)[O-])n1CCO [Metronidazole] + Cc1cc(NS(=O)(=O)c2ccc(N)cc2)no1 [Sulfamethoxazol]
3. CC(=O)Oc1ccccc1C(=O)O [Acetylsalicylicacid] + COc1c(N2C[C@@H]3CCCN[C@@H]3C2)c(F)cc2c(=O)c(C(=O)O)cn(C3CC3)c12 [Moxifloxacin]
4. CN(C)[C@@H]1C(O)=C(C(N)=O)C(=O)[C@@]2(O)C(O)=C3C(=O)c4c(O)ccc(Cl)c4[C@@](C)(O)[C@H]3C[C@@H]12 [Clortetracycline] + O=C(O[C@@H]1Cc2c(O)cc(O)cc2O[C@@H]1c1cc(O)c(O)c(O)c1)c1cc(O)c(O)c(O)c1 [EGCG]
5. CN(C)[C@@H]1C(O)=C(C(N)=O)C(=O)[C@@]2(O)C(O)=C3C(=O)c4c(O)ccc(Cl)c4[C@@](C)(O)[C@H]3C[C@@H]12 [Clortetracycline] + CN(C)c1cc(NC(=O)CNC(C)(C)C)c(O)c2c1C[C@H]1C[C@H]3[C@H](N(C)C)C(O)=C(C(N)=O)C(=O)[C@@]3(O)C(O)=C1C2=O [Tigecycline]
6. C[C@@H]1O[C@@H]1P(=O)(O)O [Fosfomycin] + Cn1nnc(-c2ccc(-c3ccc(N4C[C@H](CO)OC4=O)cc3F)cn2)n1 [Tedizolid]

Out:
[-0.0866, 0.0776, 0.114, 0.114, -0.14, 0.069]

# return Bliss interaction score for each item in the list
1. CC(=O)Oc1ccccc1C(=O)O [Acetylsalicylicacid] + CN(N=O)C(=O)N[C@@H](C=O)[C@@H](O)[C@H](O)[C@H](O)CO [Streptozotocin]
2. O=C(O)c1cn(C2CC2)c2cc(N3CCNCC3)c(F)cc2c1=O [Ciprofloxacin] + Clc1ccc(COC(Cn2ccnc2)c2ccc(Cl)cc2Cl)c(Cl)c1 [Miconazole]

Out:
[-0.0369, 0.0295]
